target: Dual specificity mitogen-activated protein kinase kinase 1 (Homo sapiens); settings: at 1 µM;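 further: values reported are mean inhibition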
measured_parameter: inhibition (%)
Numbers only, in %.

Would you please look over these solved cases?
smiles_notation: Cc1cc(O)cc(C)c1/C=C/c1cncc(C(N)=O)c1
inhibition (%): 3.39

smiles_notation: CS(=O)(=O)CCNCc1ccc(-c2ccc3ncnc(Nc4ccc(OCc5ccccc5)cc4)c3c2)o1
inhibition (%): 2.72

Give one value of inhibition per listed molecule.
1. O=C(O[C@H]1CN[C@H](C#Cc2cc3ncnc(Nc4ccc(OCc5cccc(F)c5)c(Cl)c4)c3s2)C1)N1CCOCC1
2. CS(=O)(=O)CCNCc1ccc(-c2ccc3ncnc(Nc4ccc(OCc5cccc(C(F)(F)F)c5)cc4)c3c2)o1

1. 5.74
2. 5.38

Please fill in: inhibition reported for `COc1cc(N2CCN(C(C)C)CC2)ccc1Nc1nc(Nc2cccc(F)c2C(=O)O)c2cc[nH]c2n1` = 2.88

* * *

molecular target: Fibroblast growth factor receptor 1 (Homo sapiens) (UniProt P11362); conditions: at 0.1 µM
Sequence (P11362 22-822 limits assumed): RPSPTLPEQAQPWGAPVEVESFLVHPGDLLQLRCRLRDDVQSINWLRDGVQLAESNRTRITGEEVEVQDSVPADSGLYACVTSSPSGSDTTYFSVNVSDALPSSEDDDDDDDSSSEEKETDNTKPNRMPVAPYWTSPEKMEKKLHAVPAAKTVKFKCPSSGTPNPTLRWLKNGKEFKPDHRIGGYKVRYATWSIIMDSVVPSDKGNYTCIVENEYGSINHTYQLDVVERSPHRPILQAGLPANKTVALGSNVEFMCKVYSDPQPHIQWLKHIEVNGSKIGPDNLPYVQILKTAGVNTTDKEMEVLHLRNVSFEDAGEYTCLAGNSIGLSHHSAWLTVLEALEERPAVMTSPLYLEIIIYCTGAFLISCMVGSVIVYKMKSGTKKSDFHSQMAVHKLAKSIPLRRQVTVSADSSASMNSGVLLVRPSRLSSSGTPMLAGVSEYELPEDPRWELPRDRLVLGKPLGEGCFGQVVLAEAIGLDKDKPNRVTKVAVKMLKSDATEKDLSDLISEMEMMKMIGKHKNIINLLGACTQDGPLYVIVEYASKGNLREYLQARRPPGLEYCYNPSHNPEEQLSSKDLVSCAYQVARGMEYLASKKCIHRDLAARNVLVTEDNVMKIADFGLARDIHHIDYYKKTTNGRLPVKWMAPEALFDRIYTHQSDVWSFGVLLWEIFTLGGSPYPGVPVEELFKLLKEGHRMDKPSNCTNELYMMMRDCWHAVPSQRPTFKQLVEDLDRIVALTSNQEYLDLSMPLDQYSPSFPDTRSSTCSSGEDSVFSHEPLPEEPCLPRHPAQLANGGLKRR
Provide the reported inhibition of each item.
Numbers only, in %.

Would you please look over these solved cases?
smiles_notation: O=C(O[C@H]1CN[C@H](C#Cc2cc3ncnc(Nc4ccc(OCc5cccc(F)c5)c(Cl)c4)c3s2)C1)N1CCOCC1
target_or_system: Fibroblast growth factor receptor 1 (Homo sapiens) (UniProt P11362)
inhibition / %: 1.16

smiles_notation: COc1c(C(N)=O)cc(-c2ccc(Cl)cc2)cc1-c1ccc(S(N)(=O)=O)cc1
target_or_system: Fibroblast growth factor receptor 1 (Homo sapiens) (UniProt P11362)
inhibition / %: 7.12

smiles_notation: CN(c1ccc(NC(=O)NCCN2CCOCC2)cc1)c1ccnc(Nc2ccc(CS(C)(=O)=O)cc2)n1
target_or_system: Fibroblast growth factor receptor 1 (Homo sapiens) (UniProt P11362);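 further: values are reported as mean percent inhibition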
inhibition / %: 1.48

Give one value of inhibition per listed molecule.
1. CNC(=O)c1sc(-n2cnc3cc(OC)c(OC)cc32)cc1OCc1ccccc1C(F)(F)F
2. O=C(O[C@H]1CN[C@H](C#Cc2cc3ncnc(Nc4ccc5c(cnn5Cc5ccccc5)c4)c3s2)C1)N1CCOCC1
3. CCS(=O)(=O)c1ccc(OC)c(Nc2ncc(-c3cccc(F)c3)o2)c1

-4.6
-2.97
12.7

Give one value of inhibition per listed molecule.
1. c1ccc(-c2n[nH]cc2-c2ccnc(-c3ccc(OCCn4ccnc4)cc3)c2)nc1
2. NS(=O)(=O)c1cccc(N/C=C2\C(=O)Nc3ccccc32)c1
3. COc1cccc(Nc2nccc(-c3cnn4ncccc34)n2)c1
4. COc1ccc2ncn(-c3cc(O[C@H](C)c4ccccc4C(F)(F)F)c(C(N)=O)s3)c2c1
5. Cc1cc(O)cc(C)c1/C=C/c1cncc(C(N)=O)c1

1: -3.47; 2: 5.1; 3: -2.04; 4: 1.11; 5: 2.16

Please fill in: inhibition reported for `CNC(=O)c1ncccc1Nc1nc(Nc2cc3c(cc2OC)CCCN3C(=O)CN(C)C)nc2[nH]ccc12` = 9.89

* * *

molecular target: Serine/threonine-protein kinase pim-2 (Homo sapiens); conditions: at 0.1 µM;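 further: reported value is the mean percent inhibition of PIM2, measured in the GSK PKIS kinase inhibitor set screen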
measured_parameter: inhibition (%)
Numbers only, in %.

Would you please look over these solved cases?
smiles_notation: CCOc1ccc2c(-c3ccnc(Nc4cc(OC)cc(C(F)(F)F)c4)n3)cnn2n1
inhibition (%): -0.46

smiles_notation: O=C(O[C@H]1CN[C@H](C#Cc2cc3ncnc(Nc4ccc5c(ccn5Cc5cc(F)ccc5F)c4)c3s2)C1)N1CCOCC1
inhibition (%): 0.44

smiles_notation: COc1cc(N2CCN(C(C)C)CC2)ccc1Nc1nc(Nc2cccc(F)c2C(=O)O)c2cc[nH]c2n1
inhibition (%): 0.01

smiles_notation: COc1cc(N2CCN(C(C)C)CC2)ccc1Nc1nc(Nc2cccc3ncccc23)c2cc[nH]c2n1
inhibition (%): -0.9

smiles_notation: N#Cc1ccc2c(-c3ccnc(NC4CC4)n3)c(-c3ccc(F)cc3)nn2c1
inhibition (%): -0.15

smiles_notation: Cc1cc(O)cc(C)c1/C=C/c1cncc(C(=O)OC(C)(C)C)c1
inhibition (%): 0.32

smiles_notation: COc1cc2c(cc1Nc1nc(Nc3cccc(F)c3C(N)=O)c3cc[nH]c3n1)N(C(=O)CN1CCN(C(C)C)CC1)CC2
inhibition (%): -0.02

smiles_notation: CS(=O)(=O)CCNCc1ccoc1-c1ccc2ncnc(Nc3ccc(OCc4ccccc4)cc3)c2c1
inhibition (%): 0.1

smiles_notation: COC(=O)Nc1nc2cc(Oc3ccc(NC(=O)Nc4ccccc4)cc3)ccc2[nH]1
inhibition (%): 0.15

smiles_notation: COc1cccc(Nc2nccc(-c3cnn4ncccc34)n2)c1
inhibition (%): 0.37

Give one value of inhibition per listed molecule.
1. Cc1nnc(-c2cccc(-c3ccc(C(=O)NCC4CC4)cc3)c2)o1
2. CNC(=O)c1sc(-n2cnc3cc(OC)c(OC)cc32)cc1OCc1ccccc1C(F)(F)F
3. Cc1c2ccc(N(C)c3ccnc(Nc4cccc(S(N)(=O)=O)c4)n3)cc2nn1C
4. COc1cc(Nc2ncc(-c3ccccc3)o2)cc(OC)c1

0.91
0.37
-3.44
0.58

Provenance of the data: ChEMBL document CHEMBL1961873
